System: NCI-H322M lung
Test: NCI-60 one-dose screen, 48 h (100 = growth as untreated, 0 = no growth, -100 = all killed)
Conditions: 10 µM unless noted
This is part of a sample that, as a whole, favours compounds with a hit. Of some 83,000 tested, about 20% had one in any assay.
endpoint.label: growth (%)
Please give a number only; it is taken to be in %.

compound | growth (%)
Cc1ccc(NC(=O)C2CCC(CN3CCN(C)CC3)CC2)cc1Nc1nccc(-c2cccnc2)n1 (centres undefined) | 95.9
CCN(CC)c1ccc(-c2cc(-c3cc(OC)c(OC)c(OC)c3)nc(N3CCOCC3)c2C#N)cc1 | 52.9
O=C1NC(=O)C(c2ccc(Cl)cc2Cl)N1 (centres undefined) | 100
Cn1nc(N)c2cc([C@@H]3Nc4ccc5[nH]ncc5c4[C@H]4C5CCC(C5)[C@@H]34)ccc21 (some centres undefined) | 48.9

Consider the compound CN1CCN(c2ccc3nc(-c4ccc(OCCCCN5CCN(CCCCN6C(=O)c7cccc8cccc(c78)C6=O)CC5)cc4)[nH]c3c2)CC1 and give its measured growth.
90.5

For the compound COc1ccc(Nc2nc(SC)nc(-c3cccc([N+](=O)[O-])c3)c2C#N)cc1 , what growth is on record?
65.8

Give its growth value. Item: C=CC(=O)Nc1cccc(-c2nc(SC)nc(NCc3ccccc3)c2C#N)c1
73.8

Endpoint output: growth of NCCNc1nc(Nc2ccc(-c3nc4ccccc4[nH]3)cc2)c2cn[nH]c2n1 . Value?
98.9

Query: growth; subject: CSc1nc(Nc2cccc(NC(=O)CCl)c2)c(C#N)c(-c2cccc([N+](=O)[O-])c2)n1
97.4

Item Nc1n[nH]c2ccc([C@@H]3Nc4ccc5[nH]ncc5c4[C@H]4C5C=CC(C5)[C@@H]34)cc12 (some centres undefined) has what recorded growth?
43.8

Can you share its growth? I mean this compound: NC(=NCCCC1(c2ccccc2)CCCC1)Nc1ccc(Cl)cc1
36.2

# growth lookup, item Cc1oc(-c2ccc(Cl)cc2Cl)cc1C(=O)Nc1nccs1
91.1

Fill blank: measured growth of the compound CC(=O)Oc1ccc(Cl)cc1CN(C(C)=O)C1CCCCC1 is ____.
101
